These measurements were taken from patent US20230382940A1.

procedure_summary: GI S9 stability, rat, Example Y
Type: in vitro ADME
conditions: pooled intestinal S9 fractions; rat intestinal S9, 1.0 mg/mL protein, 2 μM compound, pH 7.4; read-out: GIS9 Rat T½ (per Ex. Y)
endpoint: log10(half-life at 2 μM) (log10 of the value in min)

N#C[C@]1(COC(=O)OCC2CC2)O[C@@H](c2ccc3c(N)ncnn23)[C@H](O)[C@@H]1O :: 0.90
N#C[C@]1(COC(=O)O[C@H]2CCOC2)O[C@@H](c2ccc3c(N)ncnn23)[C@H](O)[C@@H]1O :: 1.76
N#C[C@]1(COC(=O)O[C@@H]2CCOC2)O[C@@H](c2ccc3c(N)ncnn23)[C@H](O)[C@@H]1O :: 1.67
N#C[C@]1(COC(=O)OC2CCC2)O[C@@H](c2ccc3c(N)ncnn23)[C@H](O)[C@@H]1O :: 0.85
COC(=O)OC[C@@]1(C#N)O[C@@H](c2ccc3c(N)ncnn23)[C@H](O)[C@@H]1O :: 1.57
N#C[C@]1(COC(=O)OC2CC2)O[C@@H](c2ccc3c(N)ncnn23)[C@H](O)[C@@H]1O :: 0.95
N#C[C@]1(COC(=O)OC2CC3(CCC3)C2)O[C@@H](c2ccc3c(N)ncnn23)[C@H](O)[C@@H]1O :: 0.48
CCC(CC)COC(=O)OC[C@@]1(C#N)O[C@@H](c2ccc3c(N)ncnn23)[C@H](O)[C@@H]1O :: 0.48
N#C[C@]1(COC(=O)OC2CCCCC2)O[C@@H](c2ccc3c(N)ncnn23)[C@H](O)[C@@H]1O :: 0.90
CC(C)(C)OC(=O)OC[C@@]1(C#N)O[C@@H](c2ccc3c(N)ncnn23)[C@H](O)[C@@H]1O :: 1.87
C[C@H]1CC[C@H](OC(=O)OC[C@@]2(C#N)O[C@@H](c3ccc4c(N)ncnn34)[C@H](O)[C@@H]2O)CC1 :: 0.78
CC[C@H](C)COC(=O)OC[C@@]1(C#N)O[C@@H](c2ccc3c(N)ncnn23)[C@H](O)[C@@H]1O :: 0.60
COC[C@@H](C)OC(=O)OC[C@@]1(C#N)O[C@@H](c2ccc3c(N)ncnn23)[C@H](O)[C@@H]1O :: 1.58
CC1(C)CC(OC(=O)OC[C@@]2(C#N)O[C@@H](c3ccc4c(N)ncnn34)[C@H](O)[C@@H]2O)C1 :: 0.60

---

Tested on: Human Rhinovirus 14 (HRV14)
procedure_summary: H1-HeLa HRV-CTG 384-well assay, HRV14, Example X
Format: cell-based
conditions: Rhinovirus B, 96 h; H1-HeLa cells, HRV14 MOI 1.0, 4 days, Celltiter-Glo; read-out: EC50 H1-HeLa_HRV 14_HRV-CTG 384-well Assay (per Ex. X)
pEC50: −log10 of the molar value.
Documented pEC50 across a set of molecules
endpoint: pEC50

N#C[C@]1(COC(=O)O[C@H]2CCOC2)O[C@@H](c2ccc3c(N)ncnn23)[C@H](O)[C@@H]1O :: 4.81
CO[C@@H]1O[C@H]2[C@H](c3ccc4c(N)ncnn34)O[C@](C#N)(COC(=O)OCC(C)C)[C@H]2O1 (single isomer, unassigned) :: 4.30
CC(C)COC(=O)Nc1ncnn2c([C@@H]3O[C@](C#N)(CO)[C@@H](O)[C@H]3O)ccc12 :: 4.30
N#C[C@]1(COC(=O)OC2CCC2)O[C@@H](c2ccc3c(N)ncnn23)[C@H](O)[C@@H]1O :: 4.73
CO[C@H]1O[C@H]2[C@H](c3ccc4c(N)ncnn34)O[C@](C#N)(COC(=O)OCC(C)C)[C@H]2O1 (single isomer, unassigned) :: 4.30
CC[C@H](C)OC(=O)OC[C@@]1(C#N)O[C@@H](c2ccc3c(N)ncnn23)[C@H](O)[C@@H]1O :: 4.65

---

Tested on: Human Rhinovirus 14 (HRV14)
procedure_summary: H1-HeLa HRV-CTG 384-well assay, HRV14, Example X
Assay type: cell-based
conditions: Rhinovirus B, 96 h; H1-HeLa cells, HRV14 MOI 1.0, 4 days, Celltiter-Glo; read-out: EC50 H1-HeLa_HRV 14_HRV-CTG 384-well Assay (per Ex. X)
endpoint: EC50 (µM)

CCCCCOC(=O)OC[C@@]1(C#N)O[C@@H](c2ccc3c(N)ncnn23)[C@H](O)[C@@H]1O :: 12.3
CCCOC(=O)OC[C@@]1(C#N)O[C@@H](c2ccc3c(N)ncnn23)[C@H](O)[C@@H]1O :: 14.7
N#C[C@]1(COC(=O)OCCc2ccccc2)O[C@@H](c2ccc3c(N)ncnn23)[C@H](O)[C@@H]1O :: 9.75

---

procedure_summary: GI S9 stability, human, Example Y
Assay type: in vitro ADME
conditions: pooled intestinal S9 fractions; human intestinal S9, 1.0 mg/mL protein, 2 μM compound, pH 7.4; read-out: GIS9 Human T½ (per Ex. Y)
endpoint: half-life at 2 μM

CC[C@@H](C)OC(=O)OC[C@@]1(C#N)O[C@@H](c2ccc3c(N)ncnn23)[C@H](O)[C@@H]1O :: 104 min
CCCCCOC(=O)OC[C@@]1(C#N)O[C@@H](c2ccc3c(N)ncnn23)[C@H](O)[C@@H]1O :: 16 min
CC(C)(C)OC(=O)OC[C@@]1(C#N)O[C@@H](c2ccc3c(N)ncnn23)[C@H](O)[C@@H]1O :: 97 min
CCCCCCOC(=O)OC[C@@]1(C#N)O[C@@H](c2ccc3c(N)ncnn23)[C@H](O)[C@@H]1O :: 11 min
N#C[C@]1(COC(=O)OCc2ccccc2)O[C@@H](c2ccc3c(N)ncnn23)[C@H](O)[C@@H]1O :: 15 min
CCC(CC)OC(=O)OC[C@@]1(C#N)O[C@@H](c2ccc3c(N)ncnn23)[C@H](O)[C@@H]1O :: 104 min

---

System: Human Rhinovirus 14 (HRV14)
procedure_summary: H1-HeLa HRV-CTG 384-well assay, HRV14, Example X
Format: cell-based
conditions: Rhinovirus B, 96 h; H1-HeLa cells, HRV14 MOI 1.0, 4 days, Celltiter-Glo; read-out: EC50 H1-HeLa_HRV 14_HRV-CTG 384-well Assay (per Ex. X)
endpoint: EC50 (µM)

CC1(C)CC(OC(=O)OC[C@@]2(C#N)O[C@@H](c3ccc4c(N)ncnn34)[C@H](O)[C@@H]2O)C1 :: 20.5
CC(C)OC(=O)OC[C@@]1(C#N)O[C@@H](c2ccc3c(N)ncnn23)[C@H](O)[C@@H]1O :: 31.1
N#C[C@]1(COC(=O)OCC2CCCC2)O[C@@H](c2ccc3c(N)ncnn23)[C@H](O)[C@@H]1O :: 5.58
CCC(CC)COC(=O)OC[C@@]1(C#N)O[C@@H](c2ccc3c(N)ncnn23)[C@H](O)[C@@H]1O :: 7.62
N#C[C@]1(COC(=O)OCC2CC2)O[C@@H](c2ccc3c(N)ncnn23)[C@H](O)[C@@H]1O :: 11.5
CCOC(=O)OC[C@@]1(C#N)O[C@@H](c2ccc3c(N)ncnn23)[C@H](O)[C@@H]1O :: 19.9
CC1(OC(=O)OC[C@@]2(C#N)O[C@@H](c3ccc4c(N)ncnn34)[C@H](O)[C@@H]2O)CC1 :: 24.4

---

procedure_summary: GI S9 stability, cyno, Example Y
Format: in vitro ADME
conditions: cynomolgus monkey, pooled intestinal S9 fractions; cyno intestinal S9, 1.0 mg/mL protein, 2 μM compound, pH 7.4; read-out: GIS9 Cyno T½ (per Ex. Y)
endpoint: half-life at 2 μM (min)

CCC(CC)OC(=O)OC[C@@]1(C#N)O[C@@H](c2ccc3c(N)ncnn23)[C@H](O)[C@@H]1O :: 8
CC[C@H](C)OC(=O)OC[C@@]1(C#N)O[C@@H](c2ccc3c(N)ncnn23)[C@H](O)[C@@H]1O :: 22
N#C[C@]1(COC(=O)O[C@H]2CCOC2)O[C@@H](c2ccc3c(N)ncnn23)[C@H](O)[C@@H]1O :: 163
CC(C)OC(=O)OC[C@@]1(C#N)O[C@@H](c2ccc3c(N)ncnn23)[C@H](O)[C@@H]1O :: 35
CC(C)COC(=O)OC[C@@]1(C#N)O[C@@H](c2ccc3c(N)ncnn23)[C@H](O)[C@@H]1O :: 8
CC[C@@H](C)OC(=O)OC[C@@]1(C#N)O[C@@H](c2ccc3c(N)ncnn23)[C@H](O)[C@@H]1O :: 9

---

procedure_summary: GI S9 stability, human, Example Y
Type: in vitro ADME
conditions: pooled intestinal S9 fractions; human intestinal S9, 1.0 mg/mL protein, 2 μM compound, pH 7.4; read-out: GIS9 Human T½ (per Ex. Y)
Note to self: values exactly at 30 min are 1. So half-life at 2 μM at or above 30 min is 1, below is 0.

CC(C)(C)COC(=O)OC[C@@]1(C#N)O[C@@H](c2ccc3c(N)ncnn23)[C@H](O)[C@@H]1O :: 0
CC(C)COC(=O)Nc1ncnn2c([C@@H]3O[C@](C#N)(CO)[C@@H](O)[C@H]3O)ccc12 :: 1
N#C[C@]1(COC(=O)OC2CC3(CCC3)C2)O[C@@H](c2ccc3c(N)ncnn23)[C@H](O)[C@@H]1O :: 0
N#C[C@]1(COC(=O)OC2CCC2)O[C@@H](c2ccc3c(N)ncnn23)[C@H](O)[C@@H]1O :: 0
CC(C)COC(=O)OC[C@@]1(C#N)O[C@@H](c2ccc3c(N)ncnn23)[C@H](O)[C@@H]1O :: 0
CCC(CC)COC(=O)OC[C@@]1(C#N)O[C@@H](c2ccc3c(N)ncnn23)[C@H](O)[C@@H]1O :: 0
N#C[C@]1(COC(=O)OCC2CCCC2)O[C@@H](c2ccc3c(N)ncnn23)[C@H](O)[C@@H]1O :: 0
CCOC(=O)OC[C@@]1(C#N)O[C@@H](c2ccc3c(N)ncnn23)[C@H](O)[C@@H]1O :: 1
